target: Cystic fibrosis transmembrane conductance regulator (Homo sapiens, UniProt P13569); assay: Inhibition of human wild type CFTR expressed in rat FRT cells assessed as chloride current by short-circuit current measurements
Sequence (P13569 whole entry): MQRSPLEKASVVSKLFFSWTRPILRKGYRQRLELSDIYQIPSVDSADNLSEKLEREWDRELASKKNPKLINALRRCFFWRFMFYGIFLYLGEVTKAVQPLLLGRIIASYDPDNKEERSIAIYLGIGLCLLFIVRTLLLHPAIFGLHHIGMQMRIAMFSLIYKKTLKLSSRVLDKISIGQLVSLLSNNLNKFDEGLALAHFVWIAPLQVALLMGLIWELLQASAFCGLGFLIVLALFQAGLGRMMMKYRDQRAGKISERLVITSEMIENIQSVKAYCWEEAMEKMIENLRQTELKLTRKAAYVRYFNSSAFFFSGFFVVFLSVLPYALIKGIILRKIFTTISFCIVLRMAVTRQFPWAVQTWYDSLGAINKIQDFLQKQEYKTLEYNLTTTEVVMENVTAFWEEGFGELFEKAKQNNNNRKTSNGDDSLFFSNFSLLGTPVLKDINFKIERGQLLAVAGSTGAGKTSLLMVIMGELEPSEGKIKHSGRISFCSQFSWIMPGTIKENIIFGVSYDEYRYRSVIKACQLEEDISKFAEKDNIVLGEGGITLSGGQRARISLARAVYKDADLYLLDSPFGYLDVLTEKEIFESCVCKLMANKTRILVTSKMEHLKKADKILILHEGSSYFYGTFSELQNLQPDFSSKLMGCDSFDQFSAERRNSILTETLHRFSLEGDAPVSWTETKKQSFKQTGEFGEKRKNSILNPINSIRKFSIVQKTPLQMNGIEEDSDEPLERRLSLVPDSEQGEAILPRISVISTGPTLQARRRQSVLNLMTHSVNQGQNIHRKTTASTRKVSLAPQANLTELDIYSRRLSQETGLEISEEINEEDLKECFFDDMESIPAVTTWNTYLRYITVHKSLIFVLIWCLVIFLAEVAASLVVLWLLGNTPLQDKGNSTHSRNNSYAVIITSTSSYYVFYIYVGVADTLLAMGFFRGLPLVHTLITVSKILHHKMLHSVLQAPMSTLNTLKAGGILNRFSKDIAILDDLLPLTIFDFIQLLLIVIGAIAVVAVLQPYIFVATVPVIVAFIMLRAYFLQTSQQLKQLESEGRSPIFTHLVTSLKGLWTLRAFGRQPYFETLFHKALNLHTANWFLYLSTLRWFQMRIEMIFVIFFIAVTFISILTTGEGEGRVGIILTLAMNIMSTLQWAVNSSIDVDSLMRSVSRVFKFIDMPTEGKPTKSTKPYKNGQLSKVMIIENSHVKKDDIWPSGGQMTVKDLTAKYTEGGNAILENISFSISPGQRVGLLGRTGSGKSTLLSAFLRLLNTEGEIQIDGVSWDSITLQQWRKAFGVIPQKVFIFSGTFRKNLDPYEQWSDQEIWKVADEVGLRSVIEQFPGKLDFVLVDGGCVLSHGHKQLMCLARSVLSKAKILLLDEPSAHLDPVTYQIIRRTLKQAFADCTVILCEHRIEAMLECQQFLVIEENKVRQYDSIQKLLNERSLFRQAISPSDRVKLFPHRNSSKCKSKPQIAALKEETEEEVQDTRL
measured.property: IC50 (µM)

Known IC50 results, listed for orientation:
Give IC50 for the following molecule: O=C(O)c1ccccc1/C=C1\SC(=S)N(c2ccccc2C(F)(F)F)C1=O
18

Give IC50 for the following molecule: O=C(O)c1ccc(/C=C2\SC(=S)N(c3ccccc3C(F)(F)F)C2=O)cc1
12

Give IC50 for the following molecule: O=C(O)c1ccc(/C=C2\SC(=S)N(c3cc(C(F)(F)F)ccc3Cl)C2=O)cc1
20

Give IC50 for the following molecule: O=C1/C(=C/c2ccc(O)cc2)SC(=S)N1c1cccc(C(F)(F)F)c1
24

Give IC50 for the following molecule: O=C(O)c1cc(Nc2nc(-c3cccc(C(F)(F)F)c3)cs2)ccc1O
32

Give IC50 for the following molecule: O=C1/C(=C/c2ccc(S(=O)(=O)O)cc2)SC(=S)N1c1cccc(C(F)(F)F)c1
29

1 = O=C(O)c1ccc(NC(=S)C2SC(=S)N(c3cccc(C(F)(F)F)c3)C2=O)cc1 (stereo not given)
2 = O=C1S/C(=C\c2ccc(-c3nn[nH]n3)cc2)C(=O)N1c1cccc(C(F)(F)F)c1
# returns the entry with the larger IC50; inputs 1 and 2 State your choice using its label.
2

1 = O=C1/C(=C/c2cc(Br)c(O)c(Br)c2O)SC(=S)N1c1cccc(C(F)(F)F)c1
2 = O=C(O)c1ccc(CC2SC(=S)N(c3cccc(C(F)(F)F)c3)C2=O)cc1 (stereo not given)
# returns the entry with the larger IC50; inputs 1 and 2 State your choice using its label.
2

a = O=C(O)c1cc(/C=C2\SC(=S)N(c3ccccc3C(F)(F)F)C2=O)ccc1O
b = O=C1/C(=C/c2ccncc2)SC(=S)N1c1cccc(C(F)(F)F)c1
# returns the entry with the larger IC50; inputs a and b State your choice using its label.
b

P = O=C1/C(=C/c2cc(O)c(O)c(O)c2)SC(=S)N1c1cccc(C(F)(F)F)c1
Q = O=C(O)c1cccc(/C=C2\SC(=S)N(c3cccc(C(F)(F)F)c3)C2=O)c1
# returns the entry with the larger IC50; inputs P and Q State your choice using its label.
P
